- Test system: 885724-159-R-J1-PDC complex spheroid viability;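 note: spheroids exposed to agents for seven days before readout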
- experiment-summary: Anticancer human tumor 885724-159-R-J1-PDC patient-derived pancreatic adenocarcinoma cell line growth inhibition [GQUAD]
- particulars: curve of first compound; second compound 1 µM
attribute-measured: pIC50
The scale used: pIC50 is minus the common logarithm of the concentration in molar units.

Example entries and their recorded answers appear below.
C#Cc1c(F)ccc2cc(O)cc(-c3ncc4c(N5CC6CCC(C5)N6)nc(OCC56CCCN5CC(F)C6)nc4c3F)c12 (stereo unspecified) + Cc1cnc(CNC(=O)c2c(=O)c3ccc(N4CCCN(C)CC4)nc3n3c2sc2ccccc23)cn1 : 5.35
CC1COCCN1c1cc(C2(O)CC3CCC(C2)O3)c2cnn(-c3ccn[nH]3)c2n1 (stereo unspecified) + Cc1[nH]c2ccc(F)cc2c1-c1nc2c3cccnc3c3ncccc3c2[nH]1 : 6.36
C=CCn1c(=O)c2cnc(Nc3ccc(N4CCN(C)CC4)cc3)nc2n1-c1cccc(C(C)(C)O)n1 + Cc1[nH]c2ccc(F)cc2c1-c1nc2c3cccnc3c3ncccc3c2[nH]1 : 6.25
CC1COCCN1c1cc(C2(O)CC3CCC(C2)O3)c2cnn(-c3ccn[nH]3)c2n1 (stereo unspecified) + CN(C)c1ccc(Nc2c3ccc(NC(=O)CCN4CCCC4)cc3nc3cc(NC(=O)CCN4CCCC4)ccc23)cc1 : 6.06

[Q] Give reported pIC50 for COc1cccc2c1C(=O)c1c(O)c3c(c(O)c1C2=O)CC(O)(C(=O)CO)CC3OC1CC(N)C(O)C(C)O1 (stereo unspecified) + CN(C)c1ccc(Nc2c3ccc(NC(=O)CCN4CCCC4)cc3nc3cc(NC(=O)CCN4CCCC4)ccc23)cc1 (885724-159-R-J1-PDC complex spheroid viability)
[A] 5.80

[Q] Give reported pIC50 for CCc1c2c(nc3ccc(O)cc13)-c1cc3c(c(=O)n1C2)COC(=O)[C@]3(O)CC + Cc1[nH]c2ccc(F)cc2c1-c1nc2c3cccnc3c3ncccc3c2[nH]1 (885724-159-R-J1-PDC complex spheroid viability)
[A] 6.90

All values here come from PubChem BioAssay AID2060502.
